Values from PubChem BioAssay (NCI)

- Test system: SK-MEL-2 melanoma
- Method description: NCI tumour cell line growth inhibition, 48 h; in the data active = GI50 below about 0.43 µM; inactive = the rest
Please state which outcome applies, choosing from true (active), false (inactive)

| Molecule | Assayed system | Group label |
| --- | --- | --- |
| Nc1ncnc2c1cnn2Cc1ccc(Cl)cc1 | SK-MEL-2 melanoma | false |
| Clc1ccc(Nc2ccnc(NCCCNc3ccnc4cc(Cl)ccc34)n2)cc1 | SK-MEL-2 melanoma | false |
| CCCN(CCSSCCNc1nc(N(C)O)nc(N(C)O)n1)c1nc(N(C)O)nc(N(C)O)n1 | SK-MEL-2 melanoma | false |

Consider the additional molecule presented here.
Which outcome was assigned to OCc1ccc(N(CCN2CCCC2)Cc2ccc(F)cc2)cc1Cl in this test?
false
